subject-of-test: CLK3 kinase (Homo sapiens, UniProt P49761)
Sequence (P49761 whole entry): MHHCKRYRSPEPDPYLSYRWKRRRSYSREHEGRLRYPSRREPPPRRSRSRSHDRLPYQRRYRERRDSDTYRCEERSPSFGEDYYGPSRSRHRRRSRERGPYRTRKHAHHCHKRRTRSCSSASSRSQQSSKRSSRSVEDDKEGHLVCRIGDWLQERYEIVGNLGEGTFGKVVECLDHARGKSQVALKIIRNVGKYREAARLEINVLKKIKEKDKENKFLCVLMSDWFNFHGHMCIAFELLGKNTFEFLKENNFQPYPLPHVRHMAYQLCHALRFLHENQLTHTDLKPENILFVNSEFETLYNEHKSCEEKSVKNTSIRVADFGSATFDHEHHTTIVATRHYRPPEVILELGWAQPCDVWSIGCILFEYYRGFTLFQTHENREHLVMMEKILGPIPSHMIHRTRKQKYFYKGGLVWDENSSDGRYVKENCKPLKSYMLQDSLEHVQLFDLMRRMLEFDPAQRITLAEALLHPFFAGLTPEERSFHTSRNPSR
test-protocol: CLK3 kinase activity assay (Z-lyte FRET);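 also: kinase activity read as coumarin/fluorescein emission ratio by FRET, unphosphorylated peptide as 0% and phosphorylated peptide as 100% control, values from non-linear regression of dose-response curves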
run-conditions: Z-lyte Ser/Thr 18 peptide, 156 μM ATP, 1 h at room temperature
Listed compounds paired with reported EC50
Kindly provide the numeric value in nM only, without the unit symbol.

>>> print(df.to_string())
                                smiles_code  units_symbol  experimental_result
0  CN(C)CCOc1cncc(-c2ccc3[nH]nc(-c4nc5c(-c6cccs6)cccc5[nH]4)c3n2)c1            nM                  150

input: Would you kindly share the measured EC50 for Nc1cncc(-c2ccc3[nH]nc(-c4cc5c(-c6ccncc6)ccnc5[nH]4)c3n2)c1 ?
output: 63

input: EC50 for CC(C)Nc1cncc(-c2ccc3[nH]nc(-c4cc5c(-c6cccnc6)ccnc5[nH]4)c3c2)c1 ?
output: 164
